# target.desc: T1, Human serum albumin (human, UniProt P02768 25-609)
# T1 construct: Bought purified protein, injected as the analyte in SPR; also called HSA; Human albumin, ChromPure (Jackson ImmunoResearch)
# assay: SPR (Biacore), antibody captured on the chip, HSA as analyte, 25 C, 1:1 model
The following binders are listed with their measured pKd values.
Please note pKd is a logarithmic value: minus log10 of concentration in mol/L. Answer with that number alone.

# count of solved cases: 4
binder="645CDR-497FW Fab-A26 ds HL BYbe (bispecific antibody, part only; not given: A26 dsscFv, linker, CH1, CL, V domains shown, not shown: another chain or arm of the molecule; a dimerising Fc or GST; small tags and cut ends) VH: EVQLVESGGGLVKPGGSLRLSCAASGIDLSNYAINWVRQAPGKGLEWVGIIWASGTTFYATWAKGRFTISRDDSKNTLYLQMNSLKTEDTAVYYCTTTVPGYSTAPYFDLWGQGTLVTVSS VL: AIQLTQSPSSLSASVGDRVTITCQSSPSVWSNFLSWYQQKPGKAPKLLIYEASKLTSGVPSRFSGSGSGTDFTLTISSLQPEDFATYYCGGGYSSISDTTFGQGTKVEIK" reported=8.91
binder="645CDR-2109FW Fab nh (Fab, V domains shown, also called 2109FW/645CDR Fab nh; #3) VH: EVQLVESGGGLVKPGGSLRLSCAASGIDLSNYAINWVRQAPGKGLEWIGIIWASGTTFYATWAKGRFTISVDKAKNSAYLQMNSLRAEDTAVYYCTRTVPGYSTAPYFDLWGQGTLVTVSS VL: DIQMTQSPSSLSASVGDRVTITCQSSPSVWSNFLSWYQQKPGKVPKLLIYEASKLTSGVPSRFSGTGSGTDYTLTISSLQPEDVATYFCGGGYSSISDTTFGQGTKLEIK" reported=8.82
binder="645gL4gH5 Fab-A26 BYbe wt (bispecific antibody, part only; not given: A26 dsscFv, linker, CH1, CL, V domains shown, not shown: another chain or arm of the molecule; a dimerising Fc or GST; small tags and cut ends) VH: EVQLLESGGGLVQPGGSLRLSCAVSGIDLSNYAINWVRQAPGKQLEWIGIIWASGTTFYATWAKGRFTISRDNSKNTVYLQMNSLRAEDTAVYYCARTVPGYSTAPYFDLWGQGTLVTVSS VL: DIQMTQSPSSVSASVGDRVTITCQSSPSVWSNFLSWYQQKPGKAPKLLIYEASKLTSGVPSRFSGSGSGTDFTLTISSLQPEDFATYYCGGGYSSISDTTFGGGTKVEIK" reported=8.79
binder="645CDR-497FW Fab nh (Fab, V domains shown, also called 497FW/645CDR Fab nh; 645CDR -497FW/645CDR Fab nh) VH: EVQLVESGGGLVKPGGSLRLSCAASGIDLSNYAINWVRQAPGKGLEWVGIIWASGTTFYATWAKGRFTISRDDSKNTLYLQMNSLKTEDTAVYYCTTTVPGYSTAPYFDLWGQGTLVTVSS VL: AIQLTQSPSSLSASVGDRVTITCQSSPSVWSNFLSWYQQKPGKAPKLLIYEASKLTSGVPSRFSGSGSGTDFTLTISSLQPEDFATYYCGGGYSSISDTTFGQGTKVEIK" reported=8.33

// moving on: another record for pKd
The binder 645CDR-2109FW Fab-A26 ds HL BYbe (bispecific antibody, part only; not given: A26 dsscFv, linker, CH1, CL, V domains shown, not shown: another chain or arm of the molecule; a dimerising Fc or GST; small tags and cut ends) VH: EVQLVESGGGLVKPGGSLRLSCAASGIDLSNYAINWVRQAPGKGLEWIGIIWASGTTFYATWAKGRFTISVDKAKNSAYLQMNSLRAEDTAVYYCTRTVPGYSTAPYFDLWGQGTLVTVSS VL: DIQMTQSPSSLSASVGDRVTITCQSSPSVWSNFLSWYQQKPGKVPKLLIYEASKLTSGVPSRFSGTGSGTDYTLTISSLQPEDVATYFCGGGYSSISDTTFGQGTKLEIK showed pKd equal to 8.32
